molecular target: engineered ScCRM1 (residues 1-1058, △377-413, 537DLTVK541 to GLCEQ, V441D) (S. cerevisiae, UniProt P30822 1-1058, △377–413 | 537DLTVK541 to GLCEQ | V441D); assay: crystal structure; NES peptide bound to the engineered ScCRM1-RanGppNHp-Yrb1p complex; crystallised as in Fung et al., 2015; conditions: both partners purified
measured.quantity: binding result

Below, each entry is followed by its recorded binding result result.
RELDELMASLSDFKFMAQ (Paxillin, residues 264-281; Extra N-terminal residues such as those printed for mDia2 (GGSY) and FMRP-1b (GGS) may be present; also called Pax^NES; source: expressed and purified as described in Fung et al., 2015) [Paxillin NES peptide (crystallised)]; binds
SSLQELVQQFEALPGDLV (Extra N-terminal residues such as those printed for mDia2 (GGSY) and FMRP-1b (GGS) may be present; source: expressed and purified as described in Fung et al., 2015) [X11L2 NES peptide (crystallised)]; binds
YERVVSPGIDLSGLTLQ (Mothers against decapentaplegic homolog 4 (SMAD4), residues 133-149; Extra N-terminal residues such as those printed for mDia2 (GGSY) and FMRP-1b (GGS) may be present; source: expressed and purified as described in Fung et al., 2015) [SMAD4 NES peptide (crystallised)]; binds
QDLRKLCERLRGMDSSTP (cell division cycle 7-related protein kinase (CDC7), residues 456-473; Extra N-terminal residues such as those printed for mDia2 (GGSY) and FMRP-1b (GGS) may be present; source: expressed and purified as described in Fung et al., 2015) [CDC7 NES peptide (crystallised)]; binds
YLKEVDQLRLERLQI (fragile X mental retardation protein (FMRP), residues 423-437; Extra N-terminal residues such as those printed for mDia2 (GGSY) and FMRP-1b (GGS) may be present; source: expressed and purified as described in Fung et al., 2015) [FMRP NES peptide (crystallised)]; binds
EAETVSAMALLSVG (Histone deacetylase 5 (HDAC5), residues 1082-1095; Extra N-terminal residues such as those printed for mDia2 (GGSY) and FMRP-1b (GGS) may be present; also called HDAC^NES; source: expressed and purified as described in Fung et al., 2015) [HDAC5 NES peptide (crystallised)]; binds

Now, please, on to the next binder.
For GGSYSVPEVEALLARLRAL (residues printed before the NES in the crystallised peptide; not of mDia2; mouse diaphanous homolog 3 (mDia2), residues 1179-1193; source: expressed and purified as described in Fung et al., 2015) [mDia2 NES peptide (crystallised)] , write its binding result. binds
